The measurements presented in this section are drawn from PubChem BioAssay AID2060483.

test system: K24384-001-R-PDC complex spheroids, viability; assay: Anticancer human tumor K24384-001-R-PDC patient-derived pancreatic adenocarcinoma cell line growth inhibition [GQUAD]; conditions: second compound 0.1 µM; first compound 10 µM; hits give low values
Decision: viability, T/C beneath 70% gives true; viability, T/C meeting or exceeding 70% gives false.

COMPOUND	CATEGORY
COc1cccc2c1C(=O)c1c(O)c3c(c(O)c1C2=O)CC(O)(C(=O)CO)CC3OC1CC(N)C(O)C(C)O1 (stereo not given) + Cc1cnc(CNC(=O)c2c(=O)c3ccc(N4CCCN(C)CC4)nc3n3c2sc2ccccc23)cn1	true

[in] Quick check: does CC(=O)O[C@H]1C(=O)[C@@]2(C)[C@H]([C@H](OC(=O)c3ccccc3)[C@]3(O)C[C@H](OC(=O)[C@H](O)[C@@H](NC(=O)c4ccccc4)c4ccccc4)C(C)=C1C3(C)C)[C@]1(OC(C)=O)CO[C@@H]1C[C@@H]2O + Cc1[nH]c2ccc(F)cc2c1-c1nc2c3cccnc3c3ncccc3c2[nH]1 have viability, T/C under 70%?
[out] true

[in] Quick check: does COc1ncnc(C2CC2)c1-c1ncc2cnn(Cc3ccc(-c4nc(C(F)(F)F)cn4C(C)C)cc3)c2n1 + Cc1[nH]c2ccc(F)cc2c1-c1nc2c3cccnc3c3ncccc3c2[nH]1 have viability, T/C under 70%?
[out] false

[in] Quick check: does COc1cccc2c1C(=O)c1c(O)c3c(c(O)c1C2=O)CC(O)(C(=O)CO)CC3OC1CC(N)C(O)C(C)O1 (stereo not given) + Cc1[nH]c2ccc(F)cc2c1-c1nc2c3cccnc3c3ncccc3c2[nH]1 have viability, T/C under 70%?
[out] true

* * *

I'd be grateful if you could share measured viability, T/C for these entries.
tested on: K24384-001-R-PDC complex spheroids, viability; test: Anticancer human tumor K24384-001-R-PDC cell line growth inhibition [GQUAD]; conditions: second compound 0.1 µM; first compound 0.0999 µM; hits give low values;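 note: spheroids exposed to compounds for seven days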
Answers are plain numbers, in %.

Some solved entries appear below for comparison.
MOLECULE	RESULT_UNIT	viability, T/C
CC[C@@]1(O)C(=O)OCc2c1cc1n(c2=O)Cc2cc3c(CN(C)C)c(O)ccc3nc2-1 + CN(C)c1ccc(Nc2c3ccc(NC(=O)CCN4CCCC4)cc3nc3cc(NC(=O)CCN4CCCC4)ccc23)cc1	%	51.8
Cc1[nH]c2ccccc2c1CCNCc1ccc(/C=C/C(=O)NO)cc1 + CN(C)c1ccc(Nc2c3ccc(NC(=O)CCN4CCCC4)cc3nc3cc(NC(=O)CCN4CCCC4)ccc23)cc1	%	51
CC[C@@]1(O)C(=O)OCc2c1cc1n(c2=O)Cc2cc3c(CN(C)C)c(O)ccc3nc2-1 + Cc1cnc(CNC(=O)c2c(=O)c3ccc(N4CCCN(C)CC4)nc3n3c2sc2ccccc23)cn1	%	56.5
Cc1[nH]c2ccccc2c1CCNCc1ccc(/C=C/C(=O)NO)cc1 + Cc1cnc(CNC(=O)c2c(=O)c3ccc(N4CCCN(C)CC4)nc3n3c2sc2ccccc23)cn1	%	48.9
Cn1ncnc1[C@H]1c2n[nH]c(=O)c3cc(F)cc(c23)N[C@@H]1c1ccc(F)cc1 + Cc1cnc(CNC(=O)c2c(=O)c3ccc(N4CCCN(C)CC4)nc3n3c2sc2ccccc23)cn1	%	72.8

Below is a list of molecules. For each, state its recorded viability, T/C.
1. CCc1c2c(nc3ccc(O)cc13)-c1cc3c(c(=O)n1C2)COC(=O)[C@]3(O)CC + CN(C)c1ccc(Nc2c3ccc(NC(=O)CCN4CCCC4)cc3nc3cc(NC(=O)CCN4CCCC4)ccc23)cc1
2. Cn1ncnc1[C@H]1c2n[nH]c(=O)c3cc(F)cc(c23)N[C@@H]1c1ccc(F)cc1 + Cc1[nH]c2ccc(F)cc2c1-c1nc2c3cccnc3c3ncccc3c2[nH]1
3. Cn1ncnc1[C@H]1c2n[nH]c(=O)c3cc(F)cc(c23)N[C@@H]1c1ccc(F)cc1 + CN(C)c1ccc(Nc2c3ccc(NC(=O)CCN4CCCC4)cc3nc3cc(NC(=O)CCN4CCCC4)ccc23)cc1

[out]
1. 36.1
2. 97.1
3. 107

Below is a list of molecules. For each, state its recorded viability, T/C.
1. CCc1c2c(nc3ccc(O)cc13)-c1cc3c(c(=O)n1C2)COC(=O)[C@]3(O)CC + Cc1[nH]c2ccc(F)cc2c1-c1nc2c3cccnc3c3ncccc3c2[nH]1
2. CCc1c2c(nc3ccc(O)cc13)-c1cc3c(c(=O)n1C2)COC(=O)[C@]3(O)CC + Cc1cnc(CNC(=O)c2c(=O)c3ccc(N4CCCN(C)CC4)nc3n3c2sc2ccccc23)cn1
3. CC[C@@]1(O)C(=O)OCc2c1cc1n(c2=O)Cc2cc3c(CN(C)C)c(O)ccc3nc2-1 + Cc1[nH]c2ccc(F)cc2c1-c1nc2c3cccnc3c3ncccc3c2[nH]1
4. Cc1[nH]c2ccccc2c1CCNCc1ccc(/C=C/C(=O)NO)cc1 + Cc1[nH]c2ccc(F)cc2c1-c1nc2c3cccnc3c3ncccc3c2[nH]1

[out]
31.3
29.3
65.8
66.7
